Can you tell me growth for the items I'm about to list?
tested on: SNB-75 CNS; assay: NCI-60 one-dose screen, 48 h (100 = growth as untreated, 0 = no growth, -100 = all killed); conditions: 10 µM unless noted
Compounds without any hit were thinned out: in the full panel of roughly 83,000, 20% have a hit. Calls of active or inactive are those of the source. The calls were made as follows: active = growth percent below 10; inactive = the rest.

Return the recorded growth value; entry: "O=[N+]([O-])c1ccc(S(=O)(=O)N2CCN(C3=NS(=O)(=O)c4ccccc4N3c3ccccc3)CC2)cc1"
90.2% (inactive)

Return the recorded growth value; entry: "C#CCOc1ccc2ncnc(Nc3ccc(NC(=O)CCl)cc3)c2c1"
42% (inactive)

Return the recorded growth value; entry: "CCOC(=O)Cn1c(O)c(N=Nc2ccc(S(N)(=O)=O)cc2)c2cc(Br)ccc21"
78% (inactive)

Return the recorded growth value; entry: "COC(=O)/C=C1/SC(=Nc2ccc(C)cc2)N(CCc2c[nH]c3ccc(O)cc23)C1=O"
52% (inactive)

Return the recorded growth value; entry: "CC(C)c1ccc(NC(=O)Nc2ccc(NC(=O)CCCC(=O)NOCc3ccccc3)cc2)cc1"
80.2% (inactive)

Return the recorded growth value; entry: "Cc1c(-n2nnc(-c3nc4ccccc4s3)c2N)c(=O)n(-c2ccccc2)n1C"
83.1% (inactive)

Return the recorded growth value; entry: "C/C(=N\NC(=O)c1ccccc1O)c1cccc(/C(C)=N/NC(=O)c2ccccc2O)n1"
74.9% (inactive)

Return the recorded growth value; entry: "CCOC(=O)c1c(C)c2c(n1C)CSc1cc(C(=O)c3ccccc3)c(=O)[nH]c1-2"
89.5% [100 µM] (inactive)

Return the recorded growth value; entry: Cn1cccc1C(=O)C1C(c2cccc([N+](=O)[O-])c2)C2C3CCCCC3CN2C12C(=O)Nc1ccc(Cl)cc12 (centres undefined)
37.4% (inactive)

====

tested on: UO-31 renal; test: NCI-60 one-dose screen, 48 h; settings: 10 µM unless noted
The panel holds about 83,000 compounds, 20% with a hit somewhere; the sample as a whole holds those more often. Calls of active or inactive are those of the source. The calls were made as follows: active = growth percent below 10; inactive = the rest.
// one of active, inactive, no free text

For "Cc1cccc2c1NC(=O)C2(c1ccc(O)cc1)c1ccc(O)cc1" , what call appears in the results of this test?
inactive

For "COc1ccc(OC)c(C(=O)/C=C/c2cc3c(c(OC)c2OC)OCO3)c1" , what call appears in the results of this test?
inactive

For "COc1cc(-c2cc(-c3ccc(N(C)C)cc3)nc(N3CCC(O)CC3)c2C#N)cc(OC)c1OC" , what call appears in the results of this test?
active

For "CCCCNc1ccc(C#N)c(OCCN(CC)CC)c1" , what call appears in the results of this test?
inactive

For "C=CC(=O)NCc1ccc(Nc2nccc(-c3ccc(N4CCCC4)c(C#N)c3)n2)cc1" , what call appears in the results of this test?
inactive

====

Can you tell me growth for the items I'm about to list?
system: DU-145 prostate; experiment: NCI-60 one-dose screen, 48 h (100 = growth as untreated, 0 = no growth, -100 = all killed); conditions: 10 µM unless noted
This is part of a sample that, as a whole, favours compounds with a hit. Of some 83,000 tested, about 20% had one in any assay. Activity calls are given as the source filed them. How the source made its calls: active means growth percent below 10; inactive means the rest.

Return the recorded growth value; entry: "O=C(NNc1nccc(Nc2ccc(S(=O)(=O)Nc3ccncc3)cc2)n1)c1ccccc1"
105% (inactive)

Return the recorded growth value; entry: Nc1c(C(=O)Nc2ccccc2Cl)sc2nc3c(cc12)C(O)CCC3 (stereo not given)
14.4% (inactive)

Return the recorded growth value; entry: "COc1ccc2nc(NC(=O)CSc3nnc4n3S(=O)(=O)c3ccccc3N4C)sc2c1"
115% (inactive)

Return the recorded growth value; entry: "O=C1NCCC12CCN(c1c(Cl)cncc1-c1ccc(O)cc1)CC2"
108% (inactive)

Return the recorded growth value; entry: "O=C(CSc1nnc2n1S(=O)(=O)c1ccccc1N2c1ccccc1)Nc1nc2ccc(F)cc2s1"
114% (inactive)

====

Can you tell me growth for the items I'm about to list?
system: NCI/ADR-RES ovarian; experiment: NCI-60 one-dose screen, 48 h (100 = growth as untreated, 0 = no growth, -100 = all killed); settings: 10 µM unless noted
About 83,000 compounds went through this panel and 20% of them were active in at least one assay; those are over-represented in the sample as a whole.
Express it in %; write the number only.

Return the recorded growth value; entry: "CN1CCN(Cc2ccc3c(NNC(=O)c4ccccc4)nc4cc(F)ccc4n23)CC1"
8.77

Return the recorded growth value; entry: "CCCCC(=O)c1ccco1"
93.3

Return the recorded growth value; entry: "CC(C)(C)n1cc(-c2ccnc(NCCNS(=O)(=O)c3cccc(F)c3)c2)c(-c2ccccc2)n1"
89.5

Return the recorded growth value; entry: "O=C(NCCCCNC(=O)OCc1ccc2c(Cl)cc(Cl)c(O)c2n1)OCc1ccc2c(Cl)cc(Cl)c(O)c2n1"
3.44

Return the recorded growth value; entry: "COc1cc(-c2nc(SCC(C)C)nc(Nc3cccc4ccccc34)c2C#N)cc(OC)c1OC"
98.8

Return the recorded growth value; entry: "COc1ccc2cc(-c3ccc(NC(C)=O)c(=O)o3)ccc2c1"
103

Return the recorded growth value; entry: "CCCCC(=O)Nc1ncc(Cc2ccc(Cl)cc2)s1"
48.4

Return the recorded growth value; entry: "CC(C)OC(=O)c1ccc2[nH]c(O)c(C(=Nc3ccc(N(C)C(=O)CN4CCN(C)CC4)cc3)c3ccccc3)c2c1"
38.4

Return the recorded growth value; entry: "COc1ccc2c(c1)[n+]([O-])c(C(=O)/C=C/C=C(\Cl)c1cc(OC)c(OC)c(OC)c1)c(C)[n+]2[O-]"
91

====

System: RXF 393 renal
Experiment: NCI-60 one-dose screen, 48 h
Settings: 10 µM unless noted
Protocol: Cells are grown in 96 well plates and exposed to the test compound for 48 hours. Compounds are tested at a single concentration, which is 10^-5 M for most compounds. The reported endpoint is percent growth (GI% or GIPRCNT), where numbers from 0 - 100% represent growth inhibition, and numbers from -100% - 0 represent cell death. For example, a value of 40 represents 60% growth inhibition. A value of 0 means no net growth occurred over the course of the experiment. […]
About 83,000 compounds went through this panel and 20% of them were active in at least one assay; those are over-represented in the sample as a whole. Activity calls are given as the source filed them. Rule for the calls: active = growth percent below 10; inactive = the rest.
// one of active, inactive, no free text

For "CC(C)c1ccc(COCc2cc(CN3CCCC3)c(O)c3ncccc23)cc1" , what call appears in the results of this test?
active

For "O=C1NC(=O)c2c1c1c3ccccc3ccc1c1[nH]c3ccc(Br)cc3c21" , what call appears in the results of this test?
inactive

For "Oc1c(Cl)cc(Cl)c2ccc(Cn3cc(-c4ccc(C(F)(F)F)cc4)nn3)nc12" , what call appears in the results of this test?
active

For "O=c1oc2c(cnc3ccccc32)cc1-c1ccsc1" , what call appears in the results of this test?
inactive

For "CN1CCN(Cc2ccc3c(NNC(=O)c4ccccc4)nc4cc(F)ccc4n23)CC1" , what call appears in the results of this test?
inactive

For "CC1(C)c2[nH]c3ccccc3c2C[C@]2(C)[C@H]3CC=C4[C@@H]5C[C@@](C)(C(N)=O)CC[C@]5(C)CC[C@@]4(C)[C@]3(C)CC[C@@H]12" , what call appears in the results of this test?
inactive

For "COC(=O)c1ccc2c(c1)C(=O)c1c-2n(CCCN)c(=O)c2cc([N+](=O)[O-])ccc12" , what call appears in the results of this test?
active

For "COc1ccc2c(O)c(/C=C3\N=Nc4ncccc43)oc2c1C[C@H]1CCNC[C@H]1F" , what call appears in the results of this test?
active

For "N#CCSc1nnc2n(Cc3ccccc3)c(=O)c3c4c(sc3n12)CCCC4" , what call appears in the results of this test?
inactive

For "N#Cc1nn(-c2cc(=O)[nH]c3ccc(Cl)cc23)c(N)c1C#N" , what call appears in the results of this test?
inactive

For "CCOP(=O)(OCC)c1nc(-c2ccccc2)oc1NCc1cccnc1" , what call appears in the results of this test?
inactive

For "Cc1cccc(Cl)c1NC(=O)c1ccc2nc(NC(=O)NCCN(C)C)sc2c1" , what call appears in the results of this test?
inactive

For "COc1ccc(Cc2cc(-c3ccccc3)nn(Cc3ccccc3)c2=O)cc1OC" , what call appears in the results of this test?
inactive

For "CC(C)n1cnc2c(=S)nc[nH]c21" , what call appears in the results of this test?
inactive

For "CC(C)CCNC(=O)Cn1cccc(NC(=O)OCc2ccccc2)c1=O" , what call appears in the results of this test?
inactive

For "O=C(Nc1cccc([N+](=O)[O-])c1)c1cc2ccccc2cc1O" , what call appears in the results of this test?
active

For "O=C1Nc2ccccc2[C@]12CC(c1ccccc1)=NN2" , what call appears in the results of this test?
inactive

For "COc1cnc2c(c1)C(=O)c1c-2n(CCCNCCO)c(=O)c2ccncc12" , what call appears in the results of this test?
active

For COc1cc2c(c(OC)c1OC)C(=O)CC(c1cccc(NC(=O)c3ccc(Br)cc3)c1)O2 (stereo unspecified) , what call appears in the results of this test?
inactive

For "Cc1cc2c([nH]1)CSc1cc(S(=O)(=O)c3ccccc3)c(=O)[nH]c1-2" , what call appears in the results of this test?
inactive

For "CNC(=O)c1c(NC(=O)c2ccc(C(F)(F)F)cc2)sc2c1CCC(=O)C2" , what call appears in the results of this test?
active
